Overview of recorded EC50 for various molecules
system: RKO p27 or p21 induced (arrested) colon adenocarcinoma cells; assay: Alamar Blue cell viability assay, RKO p27 or p21 induced (arrested); format: cell-based; settings: Homo sapiens, RKOp27, Table B2, cells arrested by Ponasterone A, 72 hours, read-out: −log EC50 RKO p27 or p21 induced (arrested) (converted)

Examples with answers:
>>> reported_value("CC(C)CNCCCN1C(=O)N2[C@H](c3cccc(O)c3)c3[nH]c4ccc(Cl)cc4c3C[C@@]2(C)C1=O (racemic)")
"≥ 3160 nM"
>>> reported_value("COc1ccc2[nH]c3c(c2c1)C[C@@]1(C)C(=O)N(CCN2CC=CC2)C(=O)N1[C@@H]3c1cccc(O)c1 (racemic)")
"≥ 316 nM"
>>> reported_value("C#CCN(C)CCN1C(=O)N2[C@H](c3cccc(O)c3)c3[nH]c4ccc(OC)cc4c3C[C@@]2(C)C1=O (racemic)")
"≥ 3160 nM"

Note: attention shifts to another entry.
// EC50 lookup, key: COc1ccc2[nH]c3c(c2c1)C[C@@]1(C)C(=O)N(CCCN(C)CCO)C(=O)N1[C@@H]3c1cccc(O)c1 (racemic)
≥ 316 nM
